Assay: Plasma pharmacokinetics in phase I patients
Format: in vivo, human
Conditions: human, plasma, oral, 75 mg, cycle 1, day 28; 75 mg once daily; dose-escalation cohort; n = 3; mean (standard deviation)
Procedure: On day 1, the following PK parameters were assessed for […]: area under the plasma concentration-time curve (AUC24), AUClast, maximum concentration observed (Cmax), and time of maximum concentration observed (tmax). On day 28, [NT], Cmax, Ctrough, tmax, CL/F, Vz/F, and t1⁄2, calculated based on the ratio of accumulation for AUC (day 28 AUCtau/day 1 AUC24) (Rac [AUC]), were assessed. […] For continuous PK parameters, the coefficient of variation was calculated. […]
observationType: Cmax

Asked: Report measured Cmax; entry is COc1cc(N2CCC(N3CCN(C)CC3)CC2)ccc1Nc1ncnc(Nc2ccccc2S(=O)(=O)C(C)C)n1
Given back: 352 ng/mL

---

Assay: Plasma pharmacokinetics in phase I patients
Assay type: in vivo, human
Settings: human, plasma, oral, 125 mg, cycle 1, day 28; 125 mg once daily; dose-escalation cohort; n = 1; read-out: AUC24
observationType: AUC
Express your answer as a number followed by its unit.

Asked: Report measured AUC; entry is COc1cc(N2CCC(N3CCN(C)CC3)CC2)ccc1Nc1ncnc(Nc2ccccc2S(=O)(=O)C(C)C)n1
Given back: 8970 ng·h/mL

---

Test: Plasma pharmacokinetics in phase I patients
Assay type: in vivo, human
Conditions: human, plasma, oral, 75 mg, cycle 1, day 1; 75 mg once daily; dose-escalation cohort; n = 3; mean (standard deviation)
observationType: Cmax (ng/mL)
Your answer should be a plain number; it is taken to be in ng/mL.

Asked: Report measured Cmax; entry is COc1cc(N2CCC(N3CCN(C)CC3)CC2)ccc1Nc1ncnc(Nc2ccccc2S(=O)(=O)C(C)C)n1 [ASP3026]
Given back: 87.6

---

Test: Plasma pharmacokinetics in phase I patients
Format: in vivo, human
Conditions: human, plasma, oral, 325 mg once daily, cycle 1, day 28; 325 mg once daily; dose-escalation cohort; n = 3; mean (standard deviation); calculated from accumulation ratio; read-out: t ½ (converted)
observationType: half-life (h)
Your answer should be a plain number; it is taken to be in h.

Asked: Report measured half-life; entry is COc1cc(N2CCC(N3CCN(C)CC3)CC2)ccc1Nc1ncnc(Nc2ccccc2S(=O)(=O)C(C)C)n1
Given back: 26.3

---

Test: Plasma pharmacokinetics in phase I patients
Type: in vivo, human
Conditions: human, in vivo, po, tmax
observationType: Tmax

Asked: Report measured Tmax; entry is COc1cc(N2CCC(N3CCN(C)CC3)CC2)ccc1Nc1ncnc(Nc2ccccc2S(=O)(=O)C(C)C)n1
Given back: ~3 h
